# System Name: T1, OC43 S1B+C (S1B and S1C domains of the hCoV-OC43 spike glycoprotein) (human coronavirus OC43, UniProt P36334 321-675)
# T1 construct: also called recombinant OC43 S1B+C; recombinant OC43 protein; source: Expi293F, transfected, purified from supernatant (Ni-NTA IMAC, SEC); not shown: His6, C-terminal, cleaved
# T1 sequence (looked up): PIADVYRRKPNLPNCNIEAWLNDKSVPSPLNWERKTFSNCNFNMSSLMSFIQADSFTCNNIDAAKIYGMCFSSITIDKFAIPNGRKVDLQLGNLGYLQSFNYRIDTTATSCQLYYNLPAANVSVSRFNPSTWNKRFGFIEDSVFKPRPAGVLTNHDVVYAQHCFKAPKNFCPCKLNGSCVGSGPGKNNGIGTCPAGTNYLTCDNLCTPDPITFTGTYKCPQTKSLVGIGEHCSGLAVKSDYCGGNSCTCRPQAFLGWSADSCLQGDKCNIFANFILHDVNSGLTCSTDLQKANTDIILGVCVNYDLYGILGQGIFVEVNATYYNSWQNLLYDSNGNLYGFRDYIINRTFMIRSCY
# Protocol Summary: BLI
# Condition Context: both partners purified
Listed next: entries and their corresponding Kd.

Binder	Kd, nM
WNb 292 (VHH) VHH: QVQLQESGGGLVQAGASLRLSCAASGRTFSDYAMGWFRQAPGKEREFVAAISWSGGTTYYADSVKGRFTISRDNAKNTVYLQMNSLKPEDTAVYYCAANTDYGLGLVRAYEYDYWGQGTQVTVSS	15.6
WNb 288 (VHH) VHH: QVQLQESGGGLVQAGGSLRLSCAASGRTFSDYFMGWFRQAPGKEREFVAAISWSGGSTYYADSVKGRSTISRDNAKNTVYLQMNSLKPEDTAVYYCAADHDRGWARLRLAEYDYWGQGTQVTVSS	19.6
WNb 276 (VHH) VHH: QVQLQESGGGLVQSGGSLRLSCAASGFTFSNYGMMWVRQAPGKGVEWVSRIDSDGTITLYKDSVKGRFTISRDNAKNMLYLQMESLKPEDTALYYCIKVMDWVPGRAPPFRGQGTQVTVSS	6.46
WNb 280 (VHH) VHH: QVQLQESGGGLVQAGGSLRLSCAASGRTFSNYFMGWFRQAPGKEREFVAAISWSGGSTYYTDSVKGRFTISRDNAKNTVYLQMNSLKPEDTAVYYCAGGLDMGWSRVNLGEYDYWGQGTQVTVSS	22.9
